meta.source: ChEMBL document CHEMBL5029189

experiment: Metabolic stability in mouse liver microsomes assessed as intrinsic clearance measured per mg protein incubated up to 60 mins in presence of NADPH by UPLC-MS/MS analysis; format: ADME, Microsome; conditions: read-out: CLH
measurement label: microsomal CLint (µL/min/mg)
Expressed in µL/min/mg, but write only the number.

I'd like to know its microsomal CLint. The molecule in question is CCOc1ccc(-c2nnc([C@H]3C[C@H](NC(=O)c4ccccn4)C3)n2-c2ccccc2F)nc1
27

====

assay: Inhibition of Wnt/beta-catenin signaling pathway in HEK293T cells incubated for 24 hrs by dual-Glo luciferase assay; assay type: cell-based; conditions: Homo sapiens, HEK-293T
measurement label: IC50 (nM)
Enter your answer as a number in nM; do not include the unit.

CCOc1ccc(-c2nnc([C@H]3C[C@H](NC(=O)c4ccnc5cc(F)cnc45)C3)n2-c2ccccc2F)nc1 | 0.17

Give its IC50 value. Item: CCOc1ccc(-c2nnc([C@H]3C[C@H](NC(=O)c4ccnc5cccnc45)C3)n2-c2ccccc2F)nc1
0.63
